Experiment: chemical genetic growth profiling, strain panel (AID 1159580);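 further: tested at 20 µM; growth read once vehicle control cultures reached saturation at 30 °C; 1 = growth at the plate median or of vehicle wells; lower values mean less growth of the strain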
Conditions: S. cerevisiae deletion strains, growth OD, locus YNL222W, strain SSU72, hits give low values
Among all 5,500 compounds or so, about 2,000 (36%) were called active. About 18% were inconclusive and are not listed. The list shows a part of the results.
quantityKind: normalized growth
Kindly provide the number alone.

Q. // fetch normalized growth given entry O=C1c2ccccc2C(=O)c2sccc21
A. 0.634

Q. Tell me normalized growth reported for O=C1C(NCc2ccccc2)=C(NCc2ccccc2)C(=O)c2ccccc21
A. 0.925

Q. Tell me normalized growth reported for O=[N+]([O-])c1ccc(Sc2ccccc2)cc1O
A. 0.924

Q. Note normalized growth for the compound shown: O=C(Nc1ccc(F)cc1F)c1cc(Cl)ccc1O
A. 0.939

Q. Report measured normalized growth; entry is Cc1cc(C)c2cc(C(=O)NCCNc3ccc(C(F)(F)F)cn3)[nH]c2c1
A. 0.974

Q. Assign normalized growth to the following record: CCOC(=O)C(NC(=O)c1cccc(Cl)c1)(Nc1nc2ccccc2s1)C(F)(F)F (stereo unspecified)
A. 0.968

Q. For the compound CC(=O)c1ccc(Sc2ccccc2)c([N+](=O)[O-])c1 , give its measured normalized growth value.
A. 0.876

Q. Provide one value: measured normalized growth of CCOC(=O)C(O)(c1ccc(NC(=O)c2ccc(Cl)c(Cl)c2)cc1)C(F)(F)F (stereo unspecified)
A. 0.994

Q. Find the measured normalized growth of O=[N+]([O-])c1ccc(Sc2ccccc2)c([N+](=O)[O-])c1 and report it.
A. 0.88

Q. Note normalized growth for the compound shown: O=S(=O)(Nc1cc(C(F)(F)F)cc(C(F)(F)F)c1)c1ccc(Cl)s1
A. 0.934

Q. State its normalized growth: COC(=O)c1sccc1S(=O)(=O)Nc1cc(C(F)(F)F)cc(C(F)(F)F)c1
A. 0.961
